Origin of values: PubChem BioAssay AID256

Task for the reader: assign each of the following compounds its reported T/C.
test system: CD2F1 mice, L1210 leukemia ip, survival T/C; experiment: NCI In Vivo Anticancer Drug Screen. Data for tumor model L1210 Leukemia (intraperitoneal) in CD2F1 (CDF1) mice; conditions: endpoint: mean survival time; dose: 200.0 mg/kg/injection; schedule: Q01DX009 (ip); vehicle: saline with Tween-80; higher = longer survival
Inconclusive results and toxic doses are left out.

Measured T/C of Nc1ccc(N=Nc2ccccc2)c(N)n1 : 98 % of control

Measured T/C of CC(C)C(=O)C1CCCCC1 : 95 % of control

Measured T/C of O=S(=O)(O)C(O)c1cccnc1 (stereo unspecified) : 96 % of control

Measured T/C of CC12C=C(C(=O)c3ccccc3)C(CC1)C2(C)C (stereo unspecified) : 97 % of control

Measured T/C of O=C(/C=C/c1ccccc1)Cc1ccccc1 : 98 % of control

Measured T/C of CC1(C)Oc2nc[nH]c(=O)c2C1c1ccccc1 (stereo unspecified) : 107 % of control

Measured T/C of Nc1nc(N)c(N=Nc2ccc(S(=O)(=O)O)cc2)c(N)n1 : 94 % of control

Measured T/C of Nc1nc(N)nc(C(=O)CCC(=O)O)n1 : 95 % of control

Measured T/C of OC(c1ccccc1)c1nc2ccccc2[nH]1 (stereo unspecified) : 95 % of control

Measured T/C of O=C1CC[C@H](NC(=O)OCc2ccccc2)C(=O)O1 : 90 % of control

Measured T/C of COc1nc(NC(C)C)nc(NC(C)C)n1 : 105 % of control
